These entries and their values trace back to PubChem BioAssay AID540256.

assay: qHTS for Inhibitors of binding or entry into cells for Lassa Virus; conditions: Lassa virus pseudotype entry inhibition, cell reporter; series mostly up to 37.9 µM; note: nearly all actives have a fitted effect of over 50% in size
The campaign covered roughly 300,000 compounds. About 3,700 (1.2%) were called active. Not shown: some 20% with an inconclusive outcome. Calls come from the whole dose curve; tested in HEK293 cells. For the sample, actives were picked, then their nearest neighbours and some compounds at random.
Labels: active, inactive

[
  {
    "MOLECULE": "OC(CN=c1sc2ccccc2n1CC(O)COc1ccccc1)COc1ccccc1 (stereo not drawn)",
    "QUALITATIVE_LABEL": "active"
  },
  {
    "MOLECULE": "NC(=O)C1(Nc2ccccc2Cl)CCCC1",
    "QUALITATIVE_LABEL": "inactive"
  },
  {
    "MOLECULE": "Cc1ccc(S(=O)(=O)Nc2ccc(F)c(S(=O)(=O)N3CCOCC3)c2)cc1",
    "QUALITATIVE_LABEL": "inactive"
  },
  {
    "MOLECULE": "Cc1cc(C)c(C=NNc2nc3c([nH]2)c(=O)n(C)c(=O)n3C)c(C)c1",
    "QUALITATIVE_LABEL": "inactive"
  },
  {
    "MOLECULE": "O=C(Cn1cnc2ccccc2c1=O)NNC(=O)c1ccccc1F",
    "QUALITATIVE_LABEL": "inactive"
  },
  {
    "MOLECULE": "O=[N+]([O-])c1cc(S(=O)(=O)Nc2cccc(Cl)c2)ccc1N=Nc1c(O)[nH]c2ccccc12",
    "QUALITATIVE_LABEL": "active"
  },
  {
    "MOLECULE": "OC(COc1ccccc1)Cn1cc(Br)cn1 (stereo not drawn)",
    "QUALITATIVE_LABEL": "inactive"
  },
  {
    "MOLECULE": "Cc1cc(C)c2nc3nc(C)cc(C)c3c(N)c2c1",
    "QUALITATIVE_LABEL": "active"
  },
  {
    "MOLECULE": "S=C(NCC1COc2ccccc2O1)Nc1ccc(Br)cc1 (stereo not drawn)",
    "QUALITATIVE_LABEL": "inactive"
  },
  {
    "MOLECULE": "Cc1ccc(-n2ncc3c2CC(C)(C)CC3NC(=O)Cc2c(C)noc2C)cc1 (stereo not drawn)",
    "QUALITATIVE_LABEL": "inactive"
  },
  {
    "MOLECULE": "Cc1c(C(=O)N2CCCc3ccccc32)oc2ccccc12",
    "QUALITATIVE_LABEL": "inactive"
  },
  {
    "MOLECULE": "Cc1ccc(S(=O)(=O)N2CCC(C(=O)NCCC3=CCCCC3)CC2)cc1C",
    "QUALITATIVE_LABEL": "inactive"
  },
  {
    "MOLECULE": "c1ccc2c(c1)OCC(CNc1ncnc3nc[nH]c13)O2 (stereo not drawn)",
    "QUALITATIVE_LABEL": "inactive"
  },
  {
    "MOLECULE": "CCC/C=C(\\CCC)C(NC(=O)Cc1ccccc1)c1ccc(C(=O)OC)cc1 (stereo not drawn)",
    "QUALITATIVE_LABEL": "active"
  },
  {
    "MOLECULE": "Cc1cc(C)c2nc(SCCC#N)nc(C)c2c1",
    "QUALITATIVE_LABEL": "inactive"
  },
  {
    "MOLECULE": "O=C(Cc1ccccc1Cl)N1CCOCC1",
    "QUALITATIVE_LABEL": "inactive"
  },
  {
    "MOLECULE": "CCC[C@@H]1C[C@@]1(CCC)[C@@H](NC(=O)c1ccccc1)c1ccc(C(=O)OC)cc1",
    "QUALITATIVE_LABEL": "inactive"
  },
  {
    "MOLECULE": "c1ccc(-c2cc3c(NCC4COc5ccccc5O4)ncnc3s2)cc1 (stereo not drawn)",
    "QUALITATIVE_LABEL": "active"
  },
  {
    "MOLECULE": "Oc1[nH]c2ccccc2c1N=Nc1c(F)c(F)c(F)c(F)c1F",
    "QUALITATIVE_LABEL": "inactive"
  },
  {
    "MOLECULE": "CC1=NN(C(N)=S)C(=O)C1N=Nc1cc(Cl)ccc1Cl (stereo not drawn)",
    "QUALITATIVE_LABEL": "inactive"
  },
  {
    "MOLECULE": "CCN(CC)c1ccc(/C=N/Nc2nc(C)cc(=O)[nH]2)cc1",
    "QUALITATIVE_LABEL": "inactive"
  },
  {
    "MOLECULE": "Cn1c(N)c(C(=O)COC(=O)c2cccc(S(=O)(=O)N3CCOCC3)c2)c(=O)n(C)c1=O",
    "QUALITATIVE_LABEL": "inactive"
  },
  {
    "MOLECULE": "Cc1cccc2cc3c(N)c(C(=O)N4CCCc5ccccc54)sc3nc12",
    "QUALITATIVE_LABEL": "active"
  }
]

###

assay: qHTS for Inhibitors of binding or entry into cells for Lassa Virus; conditions: Lassa virus pseudotype entry inhibition, cell reporter; series mostly up to 37.9 µM; note: nearly all actives have a fitted effect of over 50% in size
The campaign covered roughly 300,000 compounds. About 3,700 (1.2%) were called active. Another 20% or so got no clear call; they are omitted. Calls follow the shape of the full dose curve; tested in HEK293 cells. The full list was thinned out, with actives kept by preference.
Labels: active, inactive

[
  {
    "COMPOUND": "COc1cccc(-c2n[nH]c3c2C(c2cccc(O)c2)N(C)C3=O)c1 (stereo unspecified)",
    "QUALITATIVE_LABEL": "inactive"
  },
  {
    "COMPOUND": "CCCOc1ccc(C(=O)NCCc2ccccc2)cc1",
    "QUALITATIVE_LABEL": "active"
  },
  {
    "COMPOUND": "CN(CC(=O)NCC(c1ccccc1)N1CCCC1)S(=O)(=O)c1ccc(Cl)cc1 (stereo unspecified)",
    "QUALITATIVE_LABEL": "inactive"
  },
  {
    "COMPOUND": "COC(=O)Cc1c(-c2[nH]c3ccccc3c2CC(=O)OC)[nH]c2ccccc12",
    "QUALITATIVE_LABEL": "inactive"
  },
  {
    "COMPOUND": "O=C(NC1CC(=O)N(c2ccccc2)C1)c1ccco1 (stereo unspecified)",
    "QUALITATIVE_LABEL": "inactive"
  },
  {
    "COMPOUND": "Cc1cc(C)c(-c2n[nH]c3c2C(c2ccccc2F)N(CCO)C3=O)c(O)c1 (stereo unspecified)",
    "QUALITATIVE_LABEL": "inactive"
  },
  {
    "COMPOUND": "CCOc1ccc2[nH]c(=O)c(CN(CCCO)S(=O)(=O)c3ccc(F)cc3)cc2c1",
    "QUALITATIVE_LABEL": "inactive"
  },
  {
    "COMPOUND": "Cc1ccccc1CCNC(=O)C1CCC(=O)N(Cc2ccc(Cl)cc2)C1 (stereo unspecified)",
    "QUALITATIVE_LABEL": "inactive"
  },
  {
    "COMPOUND": "COC(=O)c1cnn(-c2ccc(C(=O)Nc3ccc(OC(F)(F)F)cc3)cc2)c1N",
    "QUALITATIVE_LABEL": "inactive"
  },
  {
    "COMPOUND": "Cn1cccc1C(=O)OCC(=O)c1ccc(Br)s1",
    "QUALITATIVE_LABEL": "inactive"
  },
  {
    "COMPOUND": "O=C(NC(=S)Nc1ccc(Br)cc1F)C1CCCCC1",
    "QUALITATIVE_LABEL": "inactive"
  }
]
